Tested on: M. bovis bovinus 8
Assay type: in vivo, mice
CONDITION: mice, 42 days of treatment
EXPERIMENTAL ENDPOINT: Scored sum of area: Polymorpho cellular infiltrate
Hey, just send me the number, nothing else.

COMPOUND: CO[C@H]1/C=C/O[C@@]2(C)Oc3c(C)c(O)c4c(O)c(c(/C=N/N5CCN(C)CC5)c(O)c4c3C2=O)NC(=O)/C(C)=C\C=C\[C@H](C)[C@H](O)[C@@H](C)[C@@H](O)[C@@H](C)[C@H](OC(C)=O)[C@@H]1C
EXPERIMENTAL VALUE: 0
--
COMPOUND: CC1COc2c(N3CCN(C)CC3)c(F)cc3c(=O)c(C(=O)O)cn1c23 (centres unmarked)
EXPERIMENTAL VALUE: 0.04
--
COMPOUND: CO[C@H]1/C=C/O[C@@]2(C)Oc3c(C)c(O)c4c(c3C2=O)C2=NC3(CCN(CC(C)C)CC3)NC2=C(NC(=O)/C(C)=C\C=C\[C@H](C)[C@H](O)[C@@H](C)[C@@H](O)[C@@H](C)[C@H](OC(C)=O)[C@@H]1C)C4=O
EXPERIMENTAL VALUE: 0
--
COMPOUND: CC[C@@H](CO)NCCN[C@@H](CC)CO
EXPERIMENTAL VALUE: 0.27

Then there is this compound:
# get_value(readout='Scored sum of area: Polymorpho cellular infiltrate', item= NNC(=O)c1ccncc1 [Isoniazid, isonicotinic acid hydrazide] ) 0.86

----------
Test system: M. bovis bovinus 8
Format: in vivo, mice
CONDITION: mice, 42 days of treatment
Listed below: Scored sum of area: Dense lymphocytic infiltrate values for each entry.
Hey, just send me the number, nothing else.

Examples from the recorded data:
COMPOUND: NNC(=O)c1ccncc1 [Isoniazid, isonicotinic acid hydrazide]
TESTED TARGET: M. bovis bovinus 8
EXPERIMENTAL VALUE: 1.59

COMPOUND: CC1COc2c(N3CCN(C)CC3)c(F)cc3c(=O)c(C(=O)O)cn1c23 (stereo not shown)
TESTED TARGET: M. bovis bovinus 8
EXPERIMENTAL VALUE: 6.32

COMPOUND: CO[C@H]1/C=C/O[C@@]2(C)Oc3c(C)c(O)c4c(c3C2=O)C2=NC3(CCN(CC(C)C)CC3)NC2=C(NC(=O)/C(C)=C\C=C\[C@H](C)[C@H](O)[C@@H](C)[C@@H](O)[C@@H](C)[C@H](OC(C)=O)[C@@H]1C)C4=O
TESTED TARGET: M. bovis bovinus 8
EXPERIMENTAL VALUE: 0.53

Then there is this compound:
# get_value(readout='Scored sum of area: Dense lymphocytic infiltrate', item= `CC[C@@H](CO)NCCN[C@@H](CC)CO` ) 6.8

----------
Test system: M. bovis bovinus 8
Type: in vivo, mice
CONDITION: mice, 42 days of treatment
EXPERIMENTAL ENDPOINT: Scored sum of area: Breathing lung tissue
Hey, just send me the number, nothing else.

Examples from the recorded data:
COMPOUND: CO[C@H]1/C=C/O[C@@]2(C)Oc3c(C)c(O)c4c(O)c(c(/C=N/N5CCN(C)CC5)c(O)c4c3C2=O)NC(=O)/C(C)=C\C=C\[C@H](C)[C@H](O)[C@@H](C)[C@@H](O)[C@@H](C)[C@H](OC(C)=O)[C@@H]1C
EXPERIMENTAL VALUE: 19.65
--
COMPOUND: NNC(=O)c1ccncc1 [Isoniazid, isonicotinic acid hydrazide]
EXPERIMENTAL VALUE: 17.5

# get_value(readout='Scored sum of area: Breathing lung tissue', item= `CC[C@@H](CO)NCCN[C@@H](CC)CO` ) 9.78

What would you report for CC1COc2c(N3CCN(C)CC3)c(F)cc3c(=O)c(C(=O)O)cn1c23 (centres unmarked) ? 7.32

What would you report for `CO[C@H]1/C=C/O[C@@]2(C)Oc3c(C)c(O)c4c(c3C2=O)C2=NC3(CCN(CC(C)C)CC3)NC2=C(NC(=O)/C(C)=C\C=C\[C@H](C)[C@H](O)[C@@H](C)[C@@H](O)[C@@H](C)[C@H](OC(C)=O)[C@@H]1C)C4=O` ? 23.27
